assay: chemical genetic growth profiling, strain panel (AID 1159580);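 also: tested at 20 µM; growth read once vehicle control cultures reached saturation at 30 °C; 1 = growth at the plate median or of vehicle wells; lower values mean less growth of the strain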; details: S. cerevisiae deletion strains, growth OD, locus YJL154C, strain vps35, stronger effect = lower value
Screen size: about 5,500 compounds; about 2,000 (36%) were called active. Not shown: some 18% with an inconclusive outcome. Some of the results follow.
Provide the reported normalized growth of each item.
Simply state the number, no unit and no words.

Inquiry: Sample CC1(C)S[C@@H]2[C@H](NC(=O)C(C(=O)O)c3ccccc3)C(=O)N2[C@H]1C(=O)O (some centres not stated) — what was its normalized growth?
Reply text: 0.982

Inquiry: Sample CC1(C)S[C@@H]2C(N3C(=O)[C@@H](c4ccccc4)NC3(C)C)C(=O)N2[C@H]1C(=O)O (some centres not stated) — what was its normalized growth?
Reply text: 1.02

Inquiry: Sample CC(=O)O[C@@H]1c2c(ccc3ccc(=O)oc23)OC(C)(C)[C@@H]1OC(=O)CC(C)C — what was its normalized growth?
Reply text: 1.01

Inquiry: Sample CC1(C)[C@@H]2CC[C@@]1(C)C(=O)C2 — what was its normalized growth?
Reply text: 1.01

Inquiry: Sample COc1nc(NC(C)C)nc(NC(C)C)n1 — what was its normalized growth?
Reply text: 1.01

Inquiry: Sample CC1(C)O[C@@H]2CC3C4C[C@H](F)C5=CC(=O)CC[C@]5(C)C4[C@@H](O)C[C@]3(C)[C@]2(C(=O)CO)O1 (some centres not stated) — what was its normalized growth?
Reply text: 1.01

Inquiry: Sample CC(C)Nc1nc(Cl)nc(NC(C)C)n1 — what was its normalized growth?
Reply text: 1

Inquiry: Sample O=c1c(O)cc([C@H]2Oc3cc(O)cc(O)c3C[C@H]2O)cc2c([C@H]3Oc4cc(O)cc(O)c4C[C@H]3O)cc(O)c(O)c12 — what was its normalized growth?
Reply text: 1.04

Inquiry: Sample CC1CCCC(C)N1NC(=O)c1ccc(Cl)c(S(N)(=O)=O)c1 (configuration not stated) — what was its normalized growth?
Reply text: 1.02

Inquiry: Sample CO[C@H]1[C@@H](O)[C@@H](C)O[C@H](O[C@H]2CCC3(C)C4CCC5(C)[C@@H](C6=CC(=O)OC6)CC[C@]5(O)[C@@H]4CC[C@]3(O)C2)[C@@H]1O (some centres not stated) — what was its normalized growth?
Reply text: 1.02

Inquiry: Sample CC1Cc2ccccc2N1NC(=O)c1ccc(Cl)c(S(N)(=O)=O)c1 (configuration not stated) — what was its normalized growth?
Reply text: 1

Inquiry: Sample NC[C@H]1O[C@H](O[C@H]2[C@H](O)[C@@H](O[C@H]3O[C@H](CO)[C@@H](O)[C@H](N)[C@H]3O)[C@H](N)C[C@@H]2N)[C@H](N)[C@@H](O)[C@@H]1O — what was its normalized growth?
Reply text: 0.994

Inquiry: Sample COC1=CC(=O)C=C(OC)C1=O — what was its normalized growth?
Reply text: 1.01

Inquiry: Sample CCC(=O)OCC(=O)[C@@]1(OC(=O)CC)[C@@H](C)CC2C3CCC4=CC(=O)C=C[C@]4(C)C3(F)[C@@H](O)C[C@@]21C (some centres not stated) — what was its normalized growth?
Reply text: 0.981

Inquiry: Sample C[C@H]1O[C@@H](O[C@H]2[C@@H](O)C[C@H](O[C@H]3[C@@H](O)C[C@H](O[C@H]4CC[C@]5(C)C6CC[C@]7(C)[C@@H](C8=CC(=O)OC8)CC[C@]7(O)C6CC[C@@H]5C4)O[C@@H]3C)O[C@@H]2C)C[C@H](O)[C@@H]1O (some centres not stated) — what was its normalized growth?
Reply text: 0.979

Inquiry: Sample N#Cc1c(Cl)cccc1Cl — what was its normalized growth?
Reply text: 0.978

Inquiry: Sample NC[C@H]1O[C@H](OC2[C@@H](N)C[C@@H](N)[C@H](O[C@H]3O[C@H](CO)[C@@H](O)[C@H](N)[C@H]3O)[C@H]2O)[C@H](O)[C@@H](O)[C@@H]1O (some centres not stated) — what was its normalized growth?
Reply text: 0.992
